tested.system: human ether-à-go-go-related gene (hERG) potassium channel (human, UniProt Q12809);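 note: peak tail current of the secondary pulse compared with the same well before compound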
Sequence (Q12809 whole entry, looked up): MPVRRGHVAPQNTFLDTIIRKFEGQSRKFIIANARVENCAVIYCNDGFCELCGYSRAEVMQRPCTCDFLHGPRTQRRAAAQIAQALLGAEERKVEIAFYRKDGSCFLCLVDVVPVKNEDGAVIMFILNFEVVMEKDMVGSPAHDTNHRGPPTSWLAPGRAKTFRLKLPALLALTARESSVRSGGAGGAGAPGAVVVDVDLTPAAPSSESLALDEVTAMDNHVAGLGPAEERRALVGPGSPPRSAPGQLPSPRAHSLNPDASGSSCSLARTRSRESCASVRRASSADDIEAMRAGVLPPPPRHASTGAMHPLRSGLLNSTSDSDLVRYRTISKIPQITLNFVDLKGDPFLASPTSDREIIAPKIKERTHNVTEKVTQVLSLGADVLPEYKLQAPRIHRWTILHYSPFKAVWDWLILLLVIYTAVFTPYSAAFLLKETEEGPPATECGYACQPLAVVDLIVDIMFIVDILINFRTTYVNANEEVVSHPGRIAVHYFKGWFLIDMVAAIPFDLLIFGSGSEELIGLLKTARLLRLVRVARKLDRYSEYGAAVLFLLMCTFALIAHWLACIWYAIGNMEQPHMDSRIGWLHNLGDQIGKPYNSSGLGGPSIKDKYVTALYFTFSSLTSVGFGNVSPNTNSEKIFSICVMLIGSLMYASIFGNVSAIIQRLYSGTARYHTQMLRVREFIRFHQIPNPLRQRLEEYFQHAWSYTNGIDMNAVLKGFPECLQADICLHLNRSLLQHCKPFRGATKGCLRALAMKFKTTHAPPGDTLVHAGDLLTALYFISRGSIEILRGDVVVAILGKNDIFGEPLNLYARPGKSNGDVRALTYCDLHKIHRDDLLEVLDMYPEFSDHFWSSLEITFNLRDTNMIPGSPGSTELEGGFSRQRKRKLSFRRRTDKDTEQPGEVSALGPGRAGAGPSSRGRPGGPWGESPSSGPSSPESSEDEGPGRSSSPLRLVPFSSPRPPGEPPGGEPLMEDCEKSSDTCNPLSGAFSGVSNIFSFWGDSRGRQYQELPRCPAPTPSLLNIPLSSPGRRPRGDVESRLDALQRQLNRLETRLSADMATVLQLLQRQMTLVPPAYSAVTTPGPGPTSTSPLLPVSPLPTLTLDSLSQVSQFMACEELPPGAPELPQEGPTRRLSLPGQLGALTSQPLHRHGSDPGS
method.notes: primary screen, population patch clamp on CHO cells stably expressing hERG; higher = less effect of the substance
Out of some 310,000 compounds screened, about 14,000 (4.5%) showed an effect of 50% or more. The effect is printed as a negative number. The sample holds strong results, similar compounds and a random draw of the others, so the mix is not that of the screen.
value.kind: hERG current change (%, negative = inhibition) at 10uM (%)

smiles.notation | reported.result
CN(Cc1ccc(N(C)C)cc1)C(=O)c1cc2ccccc2o1 | -18.5
CC(=O)Oc1ccc(C(=O)Nc2cccc(-c3nnc(-c4ccco4)o3)c2)cc1 | 0.775
Nc1ccc(C(=O)N2CCN(S(=O)(=O)c3ccc(Br)cc3)CC2)cc1[N+](=O)[O-] | -26.9
CSc1ccc(CN(C)C(=O)c2cc3ccccc3o2)cc1 | 21.2
C/C(NC(=O)c1ccccc1F)=C1\C(=O)C[C@@H]2[C@H]1C2(C)C | -14.4
CN(Cc1ccccc1)C(=O)c1oc(=O)c2ccccc2c1-c1ccccc1 | -13.1
O=C(c1ccc(N2CCCC2)c([N+](=O)[O-])c1)N1CCN(S(=O)(=O)c2ccc(Cl)cc2)CC1 | -36.2
O=C(CN1CCN(Cc2ccccc2)C1=O)NCc1cccs1 | 1.2
CCOC(=O)CSc1cc(C(F)(F)F)nc(-c2ccccn2)n1 | -31.5
CCc1ccc(CN(C)C(=O)c2cc(=O)c3ccccc3o2)cc1 | -66.4
Cc1ccc(NC(=O)c2ccc(-n3cncn3)c([N+](=O)[O-])c2)cc1 | -17.9
O=C(CN1CCN(Cc2ccc(Cl)cc2)C1=O)NCc1cccs1 | -57.6
COc1ccc(OC)c(Nc2nnc(C)c(=O)[nH]2)c1 | 6.27
Cc1ccc2c(C)nc(N/C(N)=N/S(=O)(=O)c3ccc([N+](=O)[O-])cc3)nc2c1 | -13.1
Cc1ccc(-c2c(C(=O)NCc3ccc(F)cc3)oc(=O)c3ccccc23)cc1 | -13
COc1ccc(Cl)cc1NC(=O)CN(C)C(=O)c1cc(=O)c2ccccc2o1 | -28
CN(Cc1ccc(Cl)cc1Cl)C(=O)c1cc(=O)c2ccccc2o1 | -53.4
CC(=O)c1ccc(S(=O)(=O)N2CCN(C(=O)c3ccc(-n4cncn4)c([N+](=O)[O-])c3)CC2)cc1 | -19.7
Cc1ccc(-c2c(C(=O)N(C)Cc3ccccc3)oc(=O)c3ccccc23)cc1 | -52.5
